Settings: 291.4 K; 101.33 kPa; Liquid; Pulse-echo method
Reported values of speed of sound for individual entries

Compound | speed of sound, m/s
CCC(=O)[O-].C[NH2+]CCO [2-hydroxy-N-methylethanaminium propionate] | 1710.1
C[NH2+]CCO.O=C[O-] [2-hydroxy-N-methylethanaminium formate] | 1828.5
CCCC(=O)[O-].C[NH2+]CCO [N-methyl-2-hydroxyethylammonium butanoate] | 1636.3
CCCCC(=O)[O-].C[NH2+]CCO [2-hydroxy-N-methylethanaminium pentanoate] | 1570.4
CC(C)C(=O)[O-].C[NH2+]CCO [2-hydroxy-N-methylethanaminium isobutyrate] | 1630.5

---

Reported values of mass density for individual entries
Details: 298.15 K; 101.33 kPa; Liquid; Vibrating tube method

Molecule | mass density (kg/m3)
CCCCC(=O)[O-].C[NH2+]CCO [2-hydroxy-N-methylethanaminium pentanoate] | 1016.21
C[NH2+]CCO.O=C[O-] [2-hydroxy-N-methylethanaminium formate] | 1128.25
CCC(=O)[O-].C[NH2+]CCO [2-hydroxy-N-methylethanaminium propionate] | 1071.27
CC(=O)[O-].C[NH2+]CCO [N-methyl-2-hydroxyethylammonium acetate] | 1100.83
CCCC(=O)[O-].C[NH2+]CCO [N-methyl-2-hydroxyethylammonium butanoate] | 1039.24
CC(C)C(=O)[O-].C[NH2+]CCO [2-hydroxy-N-methylethanaminium isobutyrate] | 1043.37

---

Details: 302.65 K; 101.33 kPa; Liquid; Vibrating tube method
± gives the expanded uncertainty stated by the source.
Assay metric: mass density

Compound | Reported result
CC(C)C(=O)[O-].C[NH2+]CCO [2-hydroxy-N-methylethanaminium isobutyrate] | 1040.49 ± 2.2 kg/m3
CCCC(=O)[O-].C[NH2+]CCO [N-methyl-2-hydroxyethylammonium butanoate] | 1036.2 ± 2.2 kg/m3
CCC(=O)[O-].C[NH2+]CCO [2-hydroxy-N-methylethanaminium propionate] | 1068.38 ± 2.2 kg/m3
CC(=O)[O-].C[NH2+]CCO [N-methyl-2-hydroxyethylammonium acetate] | 1098.14 ± 2.2 kg/m3
CCCCC(=O)[O-].C[NH2+]CCO [2-hydroxy-N-methylethanaminium pentanoate] | 1013.2 ± 2.1 kg/m3
C[NH2+]CCO.O=C[O-] [2-hydroxy-N-methylethanaminium formate] | 1125.73 ± 2.2 kg/m3

---

Reported values of mass density for individual entries
Settings: 314.65 K; 101.33 kPa; Liquid; Vibrating tube method

Compound | U | mass density
CCCC(=O)[O-].C[NH2+]CCO [N-methyl-2-hydroxyethylammonium butanoate] | kg/m3 | 1028.12
CC(=O)[O-].C[NH2+]CCO [N-methyl-2-hydroxyethylammonium acetate] | kg/m3 | 1090.87
C[NH2+]CCO.O=C[O-] [2-hydroxy-N-methylethanaminium formate] | kg/m3 | 1119.04
CCCCC(=O)[O-].C[NH2+]CCO [2-hydroxy-N-methylethanaminium pentanoate] | kg/m3 | 1005.09
CC(C)C(=O)[O-].C[NH2+]CCO [2-hydroxy-N-methylethanaminium isobutyrate] | kg/m3 | 1032.67
CCC(=O)[O-].C[NH2+]CCO [2-hydroxy-N-methylethanaminium propionate] | kg/m3 | 1060.5

---

Conditions: 305.4 K; 101.33 kPa; Liquid; Pulse-echo method
Reported values of speed of sound for individual entries

Molecule | speed of sound [m/s]
CC(C)C(=O)[O-].C[NH2+]CCO [2-hydroxy-N-methylethanaminium isobutyrate] | 1590.8
C[NH2+]CCO.O=C[O-] [2-hydroxy-N-methylethanaminium formate] | 1801.2
CCCC(=O)[O-].C[NH2+]CCO [N-methyl-2-hydroxyethylammonium butanoate] | 1591.6
CCC(=O)[O-].C[NH2+]CCO [2-hydroxy-N-methylethanaminium propionate] | 1668.6
CCCCC(=O)[O-].C[NH2+]CCO [2-hydroxy-N-methylethanaminium pentanoate] | 1526.1
